- assay_setup: 363.15 K; 101.33 kPa; Liquid; Vibrating tube method
result_type: mass density (kg/m3)

INSERT INTO assay_data (compound, value) VALUES
  ('CCCCn1cc[n+](C)c1.O=S(=O)([O-])C(F)(F)F [1-butyl-3-methylimidazolium trifluoromethanesulfonate]', 1247),
  ('CCCC[n+]1ccn(C)c1.O=S(=O)([N-]S(=O)(=O)C(F)(F)F)C(F)(F)F', 1370),
  ('CCCCn1cc[n+](C)c1.CCOS(=O)(=O)[O-] [1-butyl-3-methyl-1H-imidazolium ethyl sulfate]', 1139),
  ('CCCCn1cc[n+](C)c1.F[P-](F)(F)(F)(F)F [1-butyl-3-methylimidazolium hexafluorophosphate]', 1314),
  ('CCn1cc[n+](C)c1.O=S(=O)([N-]S(=O)(=O)C(F)(F)F)C(F)(F)F', 1455);
